- subject-of-test: T1, human IL-17 (human, UniProt Q16552 20-155, limits assumed)
- T1 construct: Recombinant human IL-17 from R&D Systems (#317-IL/CF, #317-IL-050); also called IL-17A; hIL-17
- T1 sequence: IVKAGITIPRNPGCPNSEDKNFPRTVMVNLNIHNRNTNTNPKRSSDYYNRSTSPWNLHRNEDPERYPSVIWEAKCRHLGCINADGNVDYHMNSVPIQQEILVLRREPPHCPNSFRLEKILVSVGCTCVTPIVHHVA
- test-description: SPR (BIACORE 2000), mAb captured on Protein A, IL-17 injected, 25 C, 1:1 with mass transfer model;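 further: CM4 chip with immobilized Protein A, HBS-EP running buffer pH 7.4, IL-17 titrated downward from 10 nM in twofold steps, 20 min dissociation phase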
outcome-measure: kon (M⁻¹ s⁻¹)
Give bare numbers, in M⁻¹ s⁻¹.

Here's what some known entries look like.
INSERT INTO results (binder, outcome_measure, unit_string, obs_value) VALUES
  ('mAb 121 (full-length, IgG4 Fc region) (antibody, V domains shown, Full-length mAb with an IgG4 Fc region) VH: QVQLVQSGAEVKKPGSSVKVSCKASGYSFTDYHISWVRQAPGQGLEWMGVINPEYGTTDYNQRFKGRVTITADESTSTAYMELSSLRSEDTAVYYCARYDYFTGTGAYWGQGTLVTVSS VL: DIVMTQTPLSLSVTPGQPASISCRSSQSLKHSRGNTFLHWYLQKPGQSPQLLIYKVSNRFIGVPDRFSGSGSGTDFTLKISRVEAEDVGVYYCSQSTHYPFTFGQGTKLEIK', 'kon', 'M⁻¹ s⁻¹', '1e+07'),
  ('mAb 118 (full-length, IgG4 Fc region) (antibody, V domains shown) VH: QVQLVQSGAEVKKPGSSVKVSCKASGYSFTDYHISWVRQAPGQGLEWMGVINPMYGTTDYNQRFKGRVTITADESTSTAYMELSSLRSEDTAVYYCARYDYYTGTGVYWGQGTLVTVSS VL: DIVMTQTPLSLSVTPGQPASISCRSSQSLVHSRGNTFLHWYLQKPGQSPQLLIYKVSNRFIGVPDRFSGSGSGTDFTLKISRVEAEDVGVYYCSQSTHYPFTFGQGTKLEIK', 'kon', 'M⁻¹ s⁻¹', '5e+06'),
  ('mAb 104 (full-length, IgG4 Fc region) (antibody, V domains shown, also called full-length mAb 104) VH: QVQLVQSGAEVKKPGSSVKVSCKASGYSFTDYHIHWVRQAPGQGLEWMGVINPEYGTTDYNQRFKGRVTITADESTSTAYMELSSLRSEDTAVYYCARYDYFTGTGAYWGQGTLVTVSS VL: DIVMTQTPLSLSVTPGQPASISCRSSKSLVHSRGNTFLHWYLQKPGQSPQLLIYKVSTRFSGVPDRFSGSGSGTDFTLKISRVEAEDVGVYYCSQSTHYPFTFGQGTKLEIK', 'kon', 'M⁻¹ s⁻¹', '7.7e+06'),
  ('mAb 131 (full-length, IgG4 Fc region) (antibody, V domains shown) VH: QVQLVQSGAEVKKPGSSVKVSCKASGYSFTDYHIHWVRQAPGQGLEWMGVINPEYGTTDYNQRFKGRVTITADESTSTAYMELSSLRSEDTAVYYCARYDYFTGTGVYWGQGTLVTVSS VL: DIVMTQTPLSLSVTPGQPASISCRSSKSLVHSRGNTYLHWYLQKPGQSPQLLIYKVSNRFIGVPDRFSGSGSGTDFTLKISRVEAEDVGVYYCSQSTHYPFTFGQGTKLEIK', 'kon', 'M⁻¹ s⁻¹', '5.4e+06');

Here's the next entry for you.
Short answer for mAb 103 (full-length, IgG4 Fc region) (antibody, V domains shown, also called full-length mAb 103) VH: QVQLVQSGAEVKKPGSSVKVSCKASGYSFTDYHIHWVRQAPGQGLEWMGVINPEYGTTDYNQRFKGRVTITADESTSTAYMELSSLRSEDTAVYYCARYDYFTGTGAYWGQGTLVTVSS VL: DIVMTQTPLSLSVTPGQPASISCRSSQSLRHSRGNTYLHWYLQKPGQSPQLLIYKVSNIFSGVPDRFSGSGSGTDFTLKISRVEAEDVGVYYCSQSTHYPFTFGQGTKLEIK : kon was 1.1e+07

Measured values drawn from patent US20110027290A1 for this set.
